Molecular target: Probable G-protein coupled receptor 139 (Homo sapiens)
Experiment: Agonist activity at human GPR139 expressed in CHO-K1 cells assessed as increase in calcium flux by calcium 5 dye based FLIPR assay relative to JNJ63533054
Type: functional, cell-based
Conditions: filed as agonist
Below: a set of entries, each annotated with reported Emax.

COC1CCN(c2ccn3c(=O)n(CC(=O)N[C@@H](C)c4ccc(OC(F)(F)F)cc4)nc3c2)CC1	50%
C[C@H](NC(=O)Cn1nc2cccnn2c1=O)c1ccc(OC(F)(F)F)cc1	> 80%
Cc1ccc([C@H](C)NC(=O)Cn2nc3ccc(Br)cn3c2=O)cc1	> 80%
CC1COCCN1c1cccc2nn(CC(=O)N[C@@H](C)c3ccc(Cl)c(F)c3)c(=O)n12 (stereo not given in full)	> 80%

Read the next record carefully.
Identify the measured Emax of C[C@H](NC(=O)Cn1nc2ccc(Cl)nn2c1=O)c1ccc(Cl)c(F)c1 for Probable G-protein coupled receptor 139 (Homo sapiens).
> 80%
